# experimentalSystem: T1, control peptide A2E-2/HLA-A*02:01 complex on T2 cells (member of the P19 mixture) (human)
# T1 construct: Loaded on T2 cells as part of the mixture of 19 control peptides
# assayExplanation: flow cytometry, phage on T2 cells
measurementLabel: binding result

Consider the following illustrative entries.
Q) Reported binding result for PSA146/HLA-A*02:01-specific scFv phage clone #12 (scFv, V domains shown) VH: QMQLVQSGSEVKKPGASVKVSCKASGYTFTSYGISWVRQAPGQGLEWMGWISAYNGNTDYVQKLQGRVTMTTDTSTNTAYMELGSLGSDDTAVYYCARTNYNKYDIWGQGTLVTVSS VL: QSVLTQPPSVSGAPGQRVTISCTGSSSNIGAGYDVHWYQQLPGTAPKLLIYGNSNRPSGVPDRFSGSKSGTSASLAITGLQAEDEADYYCQSYDSSLSEVFGTGTKVTVLG : what is it?
A) no binding

Q) Reported binding result, binder PSA146/HLA-A*02:01-specific scFv phage clone #17 (scFv, V domains shown) VH: QMQLVQSGAEVKKPGESLKISCKGSGYSFTSYWIGWVRQMPGKGLEWMGIIYPGDSDTRYSPSFQGQVTISADKSISTAYLQWSSLKASDTAMYYCARLVVPDAFDIWGQGTMVTVSS VL: QSVVTQPPSVSAAPGQKVTISCSGSSSNIGNNYVSWYQQLPGTAPKLLIYDNYKRPSGIPDRFSGSKSGTSATLGITGLQTGDEADYYCGTWDSSLSAGVFGGGTKLTVLG : ____
A) no binding

Q) Quick one: binding result of PSA146/HLA-A*02:01-specific scFv phage clone #18 (scFv, V domains shown) VH: QVQLVQSGAEVKKPGESLKISCKGSGYSFTSYWIGWVRQMPGKGLEWMGIIYPGDSDTRYSPSFQGQVTISADKSISTAYLQWSSLKASDTAMYYCARWGSRGFLDAFDIWGQGTMVTVSS VL: QSVVTQPPSVSAAPGQRVTISCSGSSSNIGNNYVSWYQQLPGAAPRLLIYDNDKRPSGIPDRFSGSKSGTSATLGITGLQTGDEADYYCGTWDSSLSSGVFGGGTKLTVLG ?
A) no binding

Q) binding result for PSA146/HLA-A*02:01-specific scFv phage clone #5 (scFv, V domains shown) VH: QVQLVQSGAEVKKPGDSVKVSCKPSGYNFLNYGINWVRQAPGQGLEWMGWISTYTGNTNYAQKLQGRVTFTTDTSTSTAYMEMRSLRSDDTAVYYCARSSEYYTWDHWGQGTLVTVSS VL: QSVLTQPPSVSGAPGQRVTISCTGSSSNIGAGYDVHWYQQLPGTAPKLLIYGNSNRPSGVPDRFSGSKSGTSASLAITGLQAEDEADYYCQSYDSSLSGWVFGGGTKLTVLG ?
A) no binding

Please find the next binder below.
Q) // query binding result value for entry PSA146/HLA-A*02:01-specific scFv phage clone #13 (scFv, V domains shown) VH: QVQLVQSGAEVKKPGASVKVSCKASGYTFTSYYMHWVRQAPGQGLEWMGGFDPEDGETIYAQKFQGRVTMTEDTSTDTAYMGLSSLRSEDTAVYYCARYSYDYWGQGTLVTVSS VL: QAVVTQEPSLTVSPGGTVTLTCASSTGAVTSGYYPNWFQQKPGQAPRALIYSTSNKHSWTPARFSGSLLGGKAALTLSGVQPEDEAEYYCLLYYGGAYVFGTGTKVTVLG
A) no binding
